# ASSAY OVERVIEW: Hypoxic cytotoxicity ratio of IC50 for mouse EMT6/KU cells in aerobic condition to IC50 for mouse EMT6/KU cells in hypoxic condition
# Assay type: functional
ENDPOINT NAME: Ratio IC50

1) Nc1n[n+]([O-])c2ccccc2[n+]1[O-]    3.2
2) Cn1cc(C[C@H](NC(=O)OC(C)(C)C)C(=O)NCCCCNc2nc3ccccc3[n+]([O-])n2)c2ccccc21    1.1
3) Cn1cc(C[C@H](NC(=O)OC(C)(C)C)C(=O)NCCCCCNc2n[n+]([O-])c3ccccc3[n+]2[O-])c2ccccc21    4.9
4) Cn1cc(C[C@H](NC(=O)OC(C)(C)C)C(=O)NCCCCCNc2nc3ccccc3[n+]([O-])n2)c2ccccc21    1.3
